B1: ADD1 (parent)
chain: LRHSFQKQQREKTRWLNSGRGDEA

Variants of: B1
assay_overview: protein stability index of a GFP-peptide fusion (GPS, HEK-293T) (PSI 1-6); higher = more stable;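 note: lentivirally expressed fusions sorted by FACS into six bins by GFP to DsRed ratio, PSI derived from sequencing read proportions per bin multiplied by bin number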
cond: c terminus: a fixed tail appended
measurement_name: protein stability index
Lab note: record the figure alone, no unit after it.

Some entries whose results are on file:
>  <mutation_label>
K7A

>  <protein stability index>
3.95

$$$$
>  <mutation_label>
L16G

>  <protein stability index>
4

$$$$
>  <mutation_label>
R2H

>  <protein stability index>
4.03

$$$$
>  <mutation_label>
F5T

>  <protein stability index>
4.11

$$$$
>  <mutation_label>
R10N

>  <protein stability index>
3.95

$$$$
>  <mutation_label>
K12A

>  <protein stability index>
4.1

$$$$
>  <mutation_label>
T13H

>  <protein stability index>
3.9

$$$$
>  <mutation_label>
W15A

>  <protein stability index>
4.07

$$$$

Let us move to another entry and its protein stability index.
Incoming: Output measured protein stability index for this item: H3E
Outgoing: 3.98
